Data origin, for the record: ChEMBL document CHEMBL1158254

These compounds were tested on Human immunodeficiency virus type 1 reverse transcriptase (Human immunodeficiency virus 1); IC50 is the recorded read-out.
Just the number please, in µM, no unit attached.

C=CC(C)(C)C1(CC=C(C)C)C(=O)Nc2ccccc2C1=O (configuration not stated) [BUCHAPINE] ... 12

Next:
Give its IC50 value. Item: CC(C)=CCOc1c(CC=C(C)C)c(O)nc2ccccc12 8
